These measurements were taken from paper PMC9482650.

In this section, each of the binders is paired with its reported pKd.
- measurement.target: T1, NHERF3_1, Q5T2W1
- T1 sequence (Q5T2W1 4-100, limits assumed, looked up): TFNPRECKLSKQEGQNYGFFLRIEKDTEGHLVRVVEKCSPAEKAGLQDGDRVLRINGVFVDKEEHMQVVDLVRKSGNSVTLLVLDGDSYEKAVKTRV
- test.protocol: holdup assay
- Parameters: key: below the threshold = too weak to quantify, mostly under pKd 3.1 to 4
- stated.conditions: plain residues with an end cap or a label only (N-terminal biotin on a linker: ado-ado)
Enter a number only.

Examples from the recorded data:
Lab note: measured pKd of SAGADSETHC [SLCO1B1, Q9Y6L6] was 3.68

So, RGKNRRQSIF [CDK18, Q07002] ? Its pKd was 3.85

Item: KIEDVEITLV [FCHSD2, O94868] | pKd: 4.13

---
Lab note: measured pKd of HLSTRQGTCV [ATRNL1, Q5VV63] was 3.87

Entry TKEIPNCTSV [SORCS3, Q9UPU3] — recorded pKd = 4.36

Lab note: measured pKd of IQISELETNV [SLC1A7, O00341] was 3.82
